This collection of values is drawn from the Deep4Chem optical property database.

experimentSummary: photoluminescence quantum yield (fraction); solvent given as SMILES
runConditions: in CC(C)=O
Categorized via photoluminescence quantum yield: group A: < 0.05; group B: ≥ 0.05 and < 0.4; group C: ≥ 0.4

smilesStructure | assignedLabel
CCCCCCCCC1(CCCCCCCC)c2cc(-c3ccc(C=C4C(=O)c5ccccc5C4=O)cc3)ccc2-c2ccc(-c3ccc(C=C4C(=O)c5ccccc5C4=O)cc3)cc21 | group B
CSc1cc(-c2cc3cc4c5c(c3oc2=O)CCCN5CCC4)oc(=O)c1C#N | group C

// query // bin(item) where item = C(=C\N1CCCC1)/c1nc2ccccc2nc1-c1ccccc1
// result group B

// query // bin(item) where item = CC1=[N+]2C(=C(c3ccc(N(C)C)cc3)c3ccc(C)n3[B-]2(F)F)C=C1
// result group A

// query // bin(item) where item = CN(c1ccccc1)c1ccc(/C=C2\C(=O)c3ccccc3S2(=O)=O)cc1
// result group A

// query // bin(item) where item = CCN(CC)c1ccc2cc(/C=C/C(=O)c3cc4ccc(N(CC)CC)cc4oc3=O)c(=O)oc2c1
// result group B

// query // bin(item) where item = CCN(CC)c1ccc2cc(-c3cc(SC)c(C#N)c(=O)o3)c(=O)oc2c1
// result group C

----------
experimentSummary: photoluminescence quantum yield (fraction); solvent given as SMILES
runConditions: in ClCCl
Give measured photoluminescence quantum yield for each item. Keep answers brief.
One number for each entry.

Reference set (5 entries):
smilesStructure | valueType | valueReported
Cc1ccccc1-c1c2cccc3c(-c4ccc(C(C)(C)C)cc4)cc4c(-c5ccccc5C)c5cccc6c(-c7ccc(C(C)(C)C)cc7)cc1c(c65)c4c32 | photoluminescence quantum yield | 0.28
CC(C)(C)c1ccc(C2=C(c3ccc(C(C)(C)C)cc3)C(c3ccc(C(C)(C)C)cc3)=[N+]3C2=C(c2ccccc2)c2c(-c4ccc(C(C)(C)C)cc4)c(-c4ccc(C(C)(C)C)cc4)c(-c4ccc(C(C)(C)C)cc4)n2[B-]3(F)F)cc1 | photoluminescence quantum yield | 0.45
CCCCCCCCOc1ccc(C#Cc2ccc3oc4ccccc4c3c2)c(OCCCCCCCC)c1 | photoluminescence quantum yield | 0.45
CN(C)c1ccc(/C=C/C=N/N=C/c2ccc3ccc4cccc5ccc2c3c45)cc1 | photoluminescence quantum yield | 0.008
Cc1cc2c3ccccc3n(C)c2c2c1c1ccccc1n2C | photoluminescence quantum yield | 0.114

Please report photoluminescence quantum yield for every entry that follows.
1. CCN(CC)c1ccc2cc(C#N)/c(=N\C(=O)c3ccccc3)oc2c1
2. C(C#Cc1ccc2ccc3cccc4ccc1c2c34)#Cc1cccc2ccccc12
3. COc1ccc(-c2c3cc4cc(C)sc4cc3c(-c3ccc(OC)cc3)c3cc4cc(C)sc4cc23)cc1

// result
1. 0.87
2. 0.64
3. 0.61

----------
experimentSummary: photoluminescence quantum yield (fraction); solvent given as SMILES
runConditions: in CO
photoluminescence quantum yield vs 0.1: less than gives label 1; not less than gives label 0.

Take a look at these entries with their results.
compound | assignedLabel
Cc1ccc2ccc3c(C)ccc4ccc1c2c43 | label 0
COc1c(-c2ccc(N(C)C)cc2)oc2ccccc2c1=O | label 1
CN(C)c1ccc(-c2ccc(-c3nc(C#N)c(C#N)n3C)cc2)cc1 | label 1
COC(=O)C(NC(=O)OC(C)(C)C)c1ccc2oc(-c3ccc(F)cc3)nc2c1 (stereo not drawn) | label 0
CCOC(=O)c1sc(SC)c2c(=O)n(C)nnc12 | label 1
N#Cc1ccc(N/N=C/c2ccc3ccccc3c2O)cc1 | label 0
CSc1cc(-c2cc3cc4c5c(c3oc2=O)CCCN5CCC4)oc(=O)c1C#N | label 0

Turning to the following compound.
// query Does COc1c2ccccc2c(OC)c2c1c1c(C)ccc(OC)c1n2C have photoluminescence quantum yield strictly under 0.1?
// result label 0

----------
experimentSummary: photoluminescence quantum yield (fraction); solvent given as SMILES
runConditions: in c1ccccc1
Kindly return label 1 if reported photoluminescence quantum yield is no lower than 0.2; return label 0 if it is lower.

compound | assignedLabel
CN(C)c1ccc2c(c1)-c1ccccc1C2=O | label 1
CNc1cccc2c1-c1ccccc1C2=O | label 0
CC1(C)CCc2c(c3ccccc3c3nc4ccccc4nc23)O1 | label 0
CCC1=C(C)C(=O)n2c1cc1c(c(C)c(C(=O)OC)n1C)c2=O | label 0

// query Kindly determine if photoluminescence quantum yield recorded for CNc1cccc2c1C(=O)c1ccccc1-2 is above or exactly 0.2.
// result label 0

// query Kindly determine if photoluminescence quantum yield recorded for COC(=O)C(Cc1ccc2oc(-c3ccc4c(c3)c3ccccc3n4-c3ccccc3)nc2c1)NC(=O)OC(C)(C)C (centres undefined) is above or exactly 0.2.
// result label 1

// query Kindly determine if photoluminescence quantum yield recorded for CC(C)[Si]1(C(C)C)c2cc(C=O)ccc2-c2ccc(N(C)C)cc21 is above or exactly 0.2.
// result label 1

// query Kindly determine if photoluminescence quantum yield recorded for CC(C)[Si]1(C(C)C)c2ccccc2-c2ccc(N(C)C)cc21 is above or exactly 0.2.
// result label 1

// query Kindly determine if photoluminescence quantum yield recorded for CC(C)[Si]1(C(C)C)c2cc(C#N)ccc2-c2ccc(N(C)C)cc21 is above or exactly 0.2.
// result label 1

// query Kindly determine if photoluminescence quantum yield recorded for COc1ccc(-c2cc(-c3ccc(OC)cc3)c3c(N)nc(N4CCCC4)c(C#N)c3n2)cc1 is above or exactly 0.2.
// result label 0

// query Kindly determine if photoluminescence quantum yield recorded for CCOC(=O)c1sc2nc(C)c(CC)c(C#N)c2c1N is above or exactly 0.2.
// result label 0

// query Kindly determine if photoluminescence quantum yield recorded for C(=C\c1cnccn1)/c1ccc2nccnc2c1 is above or exactly 0.2.
// result label 0

// query Kindly determine if photoluminescence quantum yield recorded for CCC1=C(C)C(=O)n2c1cc1c(CCC(=O)OC)c(C)c(C)n1c2=O is above or exactly 0.2.
// result label 1

// query Kindly determine if photoluminescence quantum yield recorded for CCC1(CC)c2cc(C=O)ccc2-c2ccc(N(C)C)cc21 is above or exactly 0.2.
// result label 1

// query Kindly determine if photoluminescence quantum yield recorded for CC1(C)Oc2c(c3nc4ccccc4nc3c3ccccc23)CC1Br (centres undefined) is above or exactly 0.2.
// result label 1

// query Kindly determine if photoluminescence quantum yield recorded for CCOC(=O)CSc1nc2c(c(C#N)c1C#N)CCCC2 is above or exactly 0.2.
// result label 0

// query Kindly determine if photoluminescence quantum yield recorded for CCOC(=O)CSc1nc(C)c(C)c(C#N)c1C#N is above or exactly 0.2.
// result label 0

// query Kindly determine if photoluminescence quantum yield recorded for CCC1(CC)c2cc(C=C(C#N)C#N)ccc2-c2ccc(N(C)C)cc21 is above or exactly 0.2.
// result label 1

----------
experimentSummary: photoluminescence quantum yield (fraction); solvent given as SMILES
runConditions: in C1CCOC1
valueType: photoluminescence quantum yield
Numbers only.

Reference set (3 entries):
smilesStructure | photoluminescence quantum yield
COc1cc(/C=C/c2cc(OC)c(-c3nc(-c4ccccc4)c(-c4ccccc4)[nH]3)cc2OC)c(OC)cc1/C=C/c1cc(OC)c(-c2nc(-c3ccccc3)c(-c3ccccc3)[nH]2)cc1OC | 0.54
CCOC(=O)c1sc(SC)c2c(=O)n(C)nnc12 | 0.016
CCCCCCCCCCCCNc1cccc2[n+]1[B-](F)(F)n1c(c3cccc4cccc1c43)=N2 | 0.18

Next:
// query Consider the molecule COc1ccc(-c2cc3c(o2)=CC2=Cc4cc5oc(-c6ccc(OC)cc6)cc5n4[B-](F)(F)[N+]=32)cc1 and give its measured photoluminescence quantum yield.
// result 0.83

----------
experimentSummary: photoluminescence quantum yield (fraction); solvent given as SMILES
runConditions: in CN(C)C=O
valueType: photoluminescence quantum yield
Give bare numbers.

Reference set (3 entries):
smilesStructure | photoluminescence quantum yield
C(=C\c1ccc(/C=C/c2ccc(N(c3ccccc3)c3ccccc3)cc2)c2nsnc12)/c1ccc(N(c2ccccc2)c2ccccc2)cc1 | 0.061
CCCCCCC(CCCCCC)N1C(=O)c2cccc3c(-c4ccc([Si](C)(C)C)cc4)ccc(c23)C1=O | 0.64
CCN(CC)c1ccc(/C=C/c2ccc(-c3ccc(/C=C/c4ccc(N(CC)CC)cc4)s3)s2)cc1 | 0.12

Please report photoluminescence quantum yield for every entry that follows.
1. c1ccc2[nH]c(-c3ccc(-c4ccc(-c5ccc(-c6nc7ccccc7[nH]6)cc5)cc4)cc3)nc2c1
2. CC1(C)Cc2c(c3ccccc3c3nc4ccccc4nc23)O1
3. CCOC(=O)c1sc(SC)c2c(=O)n(C)nnc12
4. CN(C)c1ccc(C#Cc2ccccc2)cc1
5. CCCCCCC(CCCCCC)N1C(=O)c2cccc3c(-c4ccc(-c5ccc(OC)cc5)cc4)ccc(c23)C1=O
6. Cc1cc(-c2ccc(-n3c4ccccc4c4ccccc43)cc2)nc(-c2ccc(-c3ccccc3)cc2)n1

// result
1: 0.88; 2: 0.44; 3: 0.013; 4: 0.3; 5: 0.15; 6: 0.59
